Below, each of the molecules is paired with its reported ΔTm at 150 µM value.
Target: AQ STING (truncated human STING G230A-R293Q allelic form) (Homo sapiens, UniProt Q86WV6, G230A/H232R/R293Q)
Construct: truncated human WT STING or AQ STING (amino acid residues 140-343); 8xHis (N, cleaved yes); SUMO (N, cleaved yes); made in house; host or cells: E. coli Rosetta-gami B (DE3)
Sequence (Q86WV6 140-343 G230A/H232R/R293Q): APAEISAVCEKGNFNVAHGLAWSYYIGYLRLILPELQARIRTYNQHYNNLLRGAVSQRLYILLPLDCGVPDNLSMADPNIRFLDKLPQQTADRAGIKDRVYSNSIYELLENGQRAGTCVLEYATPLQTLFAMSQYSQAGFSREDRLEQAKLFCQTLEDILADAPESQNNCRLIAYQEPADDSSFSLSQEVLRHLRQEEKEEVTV
Assay: Differential Scanning Fluorimetry with AQ STING
Assay type: binding
Conditions: thermal shift vs apoprotein; 150 μM CDN; 0.1 mg/ml STING protein; SYPRO Orange; read-out: DSF ΔTm (° C.) AQ STING
// units = °C; emit number, no label

# SMILES ENTRY, RESULT UNIT, ΔTm at 150 µM
data = [
    ("Nc1nc2c(ncn2[C@@H]2O[C@@H]3COP(=O)(O)O[C@H]4[C@@H](F)[C@H](n5cnc6c(N)ncnc65)O[C@@H]4COP(=O)(O)CO[C@@H]2[C@@H]3O)c(=O)[nH]1", "°C", 16),
    ("Nc1nc(N)c2ncn([C@@H]3O[C@@H]4COP(=O)(O)O[C@@H]5[C@H](O)[C@@H](COP(=O)(O)CO[C@H]4[C@H]3F)O[C@H]5n3cnc4c(N)ncnc43)c2n1", "°C", 7.5),
    ("Nc1nc2c(ncn2[C@@H]2O[C@@H]3COP(=O)(O)O[C@H]4[C@@H](O)[C@H](n5cnc6c(N)ncnc65)O[C@@H]4COP(=O)(O)CO[C@@H]2[C@@H]3O)c(=O)[nH]1", "°C", 7.2),
    ("Nc1nc2c(ncn2[C@@H]2O[C@@H]3COP(=O)(O)CO[C@@H]4[C@H](O)[C@@H](COP(=O)(O)O[C@H]3[C@H]2O)O[C@H]4n2cnc3c(N)ncnc32)c(=O)[nH]1", "°C", 1.2),
    ("Nc1nc2c(ncn2[C@@H]2O[C@@H]3COP(=O)(O)CO[C@H]4[C@H](O)[C@H](n5cnc6c(N)ncnc65)O[C@@H]4COP(=O)(O)O[C@@H]2[C@@H]3O)c(=O)[nH]1", "°C", 18.7),
]

Item `Nc1nc2c(ncn2[C@@H]2O[C@@H]3COP(=O)(O)CO[C@H]4[C@@H](O)[C@H](n5cnc6c(N)ncnc65)O[C@@H]4COP(=O)(O)O[C@@H]2[C@@H]3O)c(=O)[nH]1` has what recorded ΔTm at 150 µM?
23.2

Looking for the measured ΔTm at 150 µM of `Nc1nc2c(ncn2[C@@H]2O[C@@H]3COP(=O)(O)CO[C@H]4[C@@H](F)[C@H](n5cnc6c(N)ncnc65)O[C@@H]4COP(=O)(O)O[C@@H]2[C@@H]3F)c(=O)[nH]1` , can you help?
27.3

Look at this molecule and give its reported ΔTm at 150 µM. `Nc1nc2c(ncn2[C@@H]2O[C@@H]3COP(=O)(O)CO[C@H]4[C@@H](O)[C@H](n5cnc6c(N)ncnc65)O[C@@H]4COP(=O)(O)O[C@@H]2[C@@H]3F)c(=O)[nH]1`
25.1

Given `Nc1nc2c(ncn2[C@@H]2O[C@@H]3COP(=O)(O)CO[C@H]4C[C@H](n5cnc6c(N)ncnc65)O[C@@H]4COP(=O)(O)O[C@@H]2[C@@H]3F)c(=O)[nH]1` , state its recorded ΔTm at 150 µM.
23.5

If you can, please state the reported ΔTm at 150 µM value of `Nc1ncnc2c1ncn2[C@@H]1O[C@@H]2COP(=O)(O)CO[C@@H]3[C@@H](O)[C@@H](COP(=O)(O)CO[C@@H]2[C@H]1O)O[C@H]3n1cnc2c(N)ncnc21` .
0
